These data points were gathered from PubChem BioAssay AID1208.

Catalogue of Potency values
# System: rat chronic carcinogenicity bioassay, TD50
# experiment-description: DSSTox (CPDBAS) Carcinogenic Potency Database Summary Rat Bioassay Results
# details: TargetSites_Rat_Female: no positive results; stronger effect = lower value

{"compound": "CC(C)(C)O", "Potency": "64.6 mg/kg/day"}
{"compound": "CN(C)C(=O)Nc1ccc(Cl)cc1", "Potency": "131 mg/kg/day"}
{"compound": "O=Nc1ccc(Nc2ccccc2)cc1", "Potency": "201 mg/kg/day"}
{"compound": "COc1c2occc2cc2ccc(=O)oc12", "Potency": "32.4 mg/kg/day"}
{"compound": "CN(C)CCOC(C)(c1ccccc1)c1ccccn1 (stereo unspecified)", "Potency": "1610 mg/kg/day"}
{"compound": "C=C(C)[C@H]1CC=C(C)CC1", "Potency": "204 mg/kg/day"}

---

# System: rat chronic carcinogenicity bioassay, TD50
# experiment-description: DSSTox (CPDBAS) Carcinogenic Potency Database Summary Rat Bioassay Results
# details: TargetSites_Rat_Female: no positive results; stronger effect = lower value
Catalogue of Potency values
endpoint: Potency

{"compound": "Nc1ccc([N+](=O)[O-])cc1O", "study-target": "rat chronic carcinogenicity bioassay, TD50", "endpoint": "Potency", "result": "111 mg/kg/day"}
{"compound": "COc1c(Cl)c(Cl)c(Cl)c(Cl)c1Cl", "study-target": "rat chronic carcinogenicity bioassay, TD50", "endpoint": "Potency", "result": "24.8 mg/kg/day"}
{"compound": "CC(O)CNC(=O)N(N=O)C(C)Cl (stereo unspecified)", "study-target": "rat chronic carcinogenicity bioassay, TD50", "endpoint": "Potency", "result": "0.124 mg/kg/day"}
{"compound": "FCC(F)(F)F", "study-target": "rat chronic carcinogenicity bioassay, TD50", "endpoint": "Potency", "result": "29900 mg/kg/day"}
{"compound": "OCc1ccco1", "study-target": "rat chronic carcinogenicity bioassay, TD50", "endpoint": "Potency", "result": "9.6 mg/kg/day"}
{"compound": "C1CCOC1", "study-target": "rat chronic carcinogenicity bioassay, TD50", "endpoint": "Potency", "result": "407 mg/kg/day"}

---

# System: rat chronic carcinogenicity bioassay, TD50
# experiment-description: DSSTox (CPDBAS) Carcinogenic Potency Database Summary Rat Bioassay Results
# details: TD50_Rat_Note: TD50 is harmonic mean of more than one positive test; TargetSites_Rat_Female: stomach; stronger effect = lower value

{"compound": "FCCl", "Potency": "27.5 mg/kg/day"}
{"compound": "ClCC1CO1 (centres undefined)", "Potency": "2.96 mg/kg/day"}
{"compound": "Cc1ccc(Cc2cnc(NCCSCc3ccc(CN(C)C)o3)[nH]c2=O)cn1", "Potency": "3360 mg/kg/day"}
{"compound": "c1ccc(C2CO2)cc1 (centres undefined)", "Potency": "55.4 mg/kg/day"}

---

# Tested on: rat chronic carcinogenicity bioassay, TD50
# experiment-description: DSSTox (CPDBAS) Carcinogenic Potency Database Summary Rat Bioassay Results
# details: TargetSites_Rat_Female: no positive results; stronger effect = lower value
Catalogue of Potency values
endpoint: Potency

{"compound": "CCn1cc(C(=O)O)c(=O)c2cc3c(cc21)OCO3", "study-target": "rat chronic carcinogenicity bioassay, TD50", "endpoint": "Potency", "result": "167 mg/kg/day"}
{"compound": "NCC1(CC(=O)O)CCCCC1", "study-target": "rat chronic carcinogenicity bioassay, TD50", "endpoint": "Potency", "result": "5850 mg/kg/day"}
{"compound": "OC(Cn1cncn1)(Cn1cncn1)c1ccc(F)cc1F", "study-target": "rat chronic carcinogenicity bioassay, TD50", "endpoint": "Potency", "result": "80.7 mg/kg/day"}
{"compound": "Nc1ccc(O)c([N+](=O)[O-])c1", "study-target": "rat chronic carcinogenicity bioassay, TD50", "endpoint": "Potency", "result": "309 mg/kg/day"}
{"compound": "CC(I)C1OCC(CO)O1 (configuration not stated)", "study-target": "rat chronic carcinogenicity bioassay, TD50", "endpoint": "Potency", "result": "101 mg/kg/day"}
{"compound": "C[C@]12C=CC(=O)C=C1CC[C@@H]1[C@@H]2[C@@H](O)C[C@@]2(C)[C@H]1CC[C@]2(O)C(=O)CO", "study-target": "rat chronic carcinogenicity bioassay, TD50", "endpoint": "Potency", "result": "1.53 mg/kg/day"}
{"compound": "Nc1ccccc1C(=O)OC/C=C/c1ccccc1", "study-target": "rat chronic carcinogenicity bioassay, TD50", "endpoint": "Potency", "result": "12100 mg/kg/day"}
{"compound": "[Cl-].[Cl-].[Hg+2]", "study-target": "rat chronic carcinogenicity bioassay, TD50", "endpoint": "Potency", "result": "3.12 mg/kg/day"}
{"compound": "c1ccncc1", "study-target": "rat chronic carcinogenicity bioassay, TD50", "endpoint": "Potency", "result": "67.3 mg/kg/day"}
{"compound": "CCO", "study-target": "rat chronic carcinogenicity bioassay, TD50", "endpoint": "Potency", "result": "9110 mg/kg/day"}
{"compound": "Cc1cc(N=Nc2c(O)ccc3ccccc23)c(S(=O)(=O)O)cc1Cl", "study-target": "rat chronic carcinogenicity bioassay, TD50", "endpoint": "Potency", "result": "146 mg/kg/day"}
{"compound": "CC(C)n1c(/C=C/[C@@H](O)C[C@@H](O)CC(=O)O)c(-c2ccc(F)cc2)c2ccccc21", "study-target": "rat chronic carcinogenicity bioassay, TD50", "endpoint": "Potency", "result": "125 mg/kg/day"}
